- Tested on: SK-OV-3 ovarian
- method_description: NCI tumour cell line growth inhibition, 48 h
# GI50 listing for each entry below

{"smiles_record": "Cc1cc2cc3cc(C)c(N(C)C)cc3nc2cc1N(C)C", "target_or_test_system": "SK-OV-3 ovarian", "GI50": "2.87 µM"}
{"smiles_record": "COC(=O)c1ccc2c(c1)nc(-c1cc3ccccc3[nH]c1=O)n2-c1cc(C(C)(C)C)[nH]n1", "target_or_test_system": "SK-OV-3 ovarian", "GI50": "> 53.4 µM"}
{"smiles_record": "CCCCCCCC/C=C/CCCCCCCC1=NCC[N+]1(CCO)CCO", "target_or_test_system": "SK-OV-3 ovarian", "GI50": "10.1 µM"}
{"smiles_record": "Cc1cccc(Oc2nccc(-c3c(-c4ccc(F)cc4)ncn3C3CCNCC3)n2)c1C", "target_or_test_system": "SK-OV-3 ovarian", "GI50": "5.72 µM"}

The compound listed as "CCN(CC)c1cc(/C=C/c2ccc(OC)c(OC)c2)nc2cc(F)c(F)cc12" shows GI50 equal to 1.98 µM
